Data provenance is patent US12649746B2.

# Assay Method Text: Stability study of levorotatory enantiomer of compounds in solvent (MCT)
# Format: physicochemical
# Experimental Context: MCT solution, 25° C., Day 30
Measure Name: Ketorolac (%)

Below are worked cases with known answers.
| Compound | Recorded Measurement |
| --- | --- |
| CCOC(=O)OC(CC)OC(=O)[C@H]1CCn2c(C(=O)c3ccccc3)ccc21 (stereo partly drawn) [N15(S)] | 0.05 |
| CCOC(=O)OC(C)OC(=O)[C@H]1CCn2c(C(=O)c3ccccc3)ccc21 (stereo partly drawn) [N12(S)] | 0.07 |

[I] CCC(OC(=O)OC(C)C)OC(=O)[C@H]1CCn2c(C(=O)c3ccccc3)ccc21 (stereo partly drawn) [N16(S)]
[II] CC(C)OC(=O)OC(C)OC(=O)[C@H]1CCn2c(C(=O)c3ccccc3)ccc21 (stereo partly drawn) [N2(S)]
Input: Lab note: check whether I or II shows the higher recorded Ketorolac (%). Answer by stating the label of the chosen item.
Output: II

====

# Assay Method Text: High temperature stability study of compounds (60° C.)
# Type: physicochemical
# Experimental Context: related substance, in the dark, Day 0
Measure Name: Ketorolac (%)

| Molecule | Ketorolac (%) |
| --- | --- |
| CC(OC(=O)OC1CCCCC1)OC(=O)C1CCn2c(C(=O)c3ccccc3)ccc21 (centres unmarked) | 0.05 |
| CC(C)OC(=O)OC(C)OC(=O)C1CCn2c(C(=O)c3ccccc3)ccc21 (centres unmarked) | 0.03 |
| CCOC(=O)OC(C)OC(=O)C1CCn2c(C(=O)c3ccccc3)ccc21 (centres unmarked) | 0.03 |

[P] CCC(OC(C)=O)OC(=O)C1CCn2c(C(=O)c3ccccc3)ccc21 (centres unmarked)
[Q] CCC(=O)OC(CC)OC(=O)C1CCn2c(C(=O)c3ccccc3)ccc21 (centres unmarked)
Input: Lab note: check whether P or Q shows the higher recorded Ketorolac (%). Answer by stating the label of the chosen item.
Output: Q

====

# Assay Method Text: Stability study of levorotatory enantiomer of compounds in solvent (MCT)
# Assay type: physicochemical
# Experimental Context: dextrorotatory form, MCT solution, 25° C., Day 5
Measure Name: Isomer (%)

Below are worked cases with known answers.
| Compound | Unit String | Recorded Measurement |
| --- | --- | --- |
| CCOC(=O)OC(CC)OC(=O)[C@H]1CCn2c(C(=O)c3ccccc3)ccc21 (stereo partly drawn) [N15(S)] | % | 4.58 |
| CCOC(=O)OC(C)OC(=O)[C@H]1CCn2c(C(=O)c3ccccc3)ccc21 (stereo partly drawn) [N12(S)] | % | 3.04 |

[a] CCC(OC(=O)OC(C)C)OC(=O)[C@H]1CCn2c(C(=O)c3ccccc3)ccc21 (stereo partly drawn) [N16(S)]
[b] CC(C)OC(=O)OC(C)OC(=O)[C@H]1CCn2c(C(=O)c3ccccc3)ccc21 (stereo partly drawn) [N2(S)]
Input: Lower value for measured Isomer (%)? Options: a , b Answer by stating the label of the chosen item.
Output: a

====

# Experimental Context: human, 0 min, 97.6 µM
Measure Name: Content of the compound % (%)

| Compound | Content of the compound % [%] |
| --- | --- |
| CCC(OC(=O)OC(C)C)OC(=O)C1CCn2c(C(=O)c3ccccc3)ccc21 (stereo not drawn) | 100 |
| CC(C)OC(=O)OC(C)OC(=O)C1CCn2c(C(=O)c3ccccc3)ccc21 (stereo not drawn) | 98.950 |
| CC(C)OC(=O)C1CCn2c(C(=O)c3ccccc3)ccc21 (stereo not drawn) [N11, reference compound] | 99.700 |
| CCOC(=O)OC(C)OC(=O)C1CCn2c(C(=O)c3ccccc3)ccc21 (stereo not drawn) | 97.967 |
| CCOC(=O)OC(CC)OC(=O)C1CCn2c(C(=O)c3ccccc3)ccc21 (stereo not drawn) | 99.560 |
| CCC(=O)OC(CC)OC(=O)C1CCn2c(C(=O)c3ccccc3)ccc21 (stereo not drawn) | 100 |
